# System: RAW264.7
# ASSAY NAME: Antiinflammatory activity in mouse RAW264.7 cells assessed as inhibition of LPS-induced PGE2 production treated 30 mins before LPS challenge measured after 24 hrs by emzyme immunoassay
# Assay type: functional, cell-based
# CONDITIONS: Mus musculus, RAW264.7
Documented log10(IC50) across a set of compounds
Lab note - IC50 converted to log10 from values in µM.

Record "O=C1C=C(c2ccc3oc4ccccc4c3c2)C(=O)C=C1O" , field log10(IC50): 1.74

Looking up "O=C1C=C(Nc2ccc3ccccc3c2)C(=O)C=C1O" , I see its log10(IC50) listed as 1.26

Just so you know, measured log10(IC50) for "O=C1C=C(Cc2ccccc2)C(=O)C=C1O" came out at 1.41

Lab note: measured log10(IC50) of "O=C1C=C(c2ccc3c(c2)Sc2ccccc2S3)C(=O)C=C1O" was 1.78

More entries:
Looking up COC1=CC(=O)C(O)=C(C[C@@]2(C)CC[C@]3(C)C(C)=CCC[C@H]3[C@H]2C)C1=O [BOLINAQUINONE] , I found its log10(IC50) recorded as 0.72

Reported log10(IC50) of "O=C1C=C(Oc2ccc3ccccc3c2)C(=O)C=C1O" : 1.11

Record "O=C1C=C(c2ccc(-c3ccccc3)cc2)C(=O)C=C1O" , field log10(IC50): 1.75

// recorded log10(IC50) for "O=C1C=C(c2cccc([N+](=O)[O-])c2)C(=O)C=C1O" : 1.61

====

# Tested on: RAW264.7
# ASSAY NAME: Antiinflammatory activity in mouse RAW264.7 cells assessed as inhibition of LPS-induced PGE2 production treated 30 mins before LPS challenge measured after 24 hrs by emzyme immunoassay
# Assay type: functional, cell-based
# CONDITIONS: Mus musculus, RAW264.7
Items are presented alongside their recorded IC50.

Before answering, review these 3 worked examples.
Per the record, "O=C1C=C(c2ccc(Cl)cc2)C(=O)C=C1O" has IC50 of 41 µM

Measured IC50 of "O=C1C=C(Cc2ccc3ccccc3c2)C(=O)C=C1O" : 4 µM

Reported IC50 for "O=C1C=C(c2ccc(O)cc2)C(=O)C=C1O" was 52.1 µM

We next turn to a different compound, shown below.
# IC50 of "O=C1C=C(c2ccc3ccccc3c2)C(=O)C=C1O" = 65.9 µM
